Every entry's value here was drawn from ChEMBL document CHEMBL1240515.

biological target: MAP kinase-interacting serine/threonine-protein kinase 2 (Homo sapiens, UniProt Q9HBH9)
Sequence (Q9HBH9 whole entry): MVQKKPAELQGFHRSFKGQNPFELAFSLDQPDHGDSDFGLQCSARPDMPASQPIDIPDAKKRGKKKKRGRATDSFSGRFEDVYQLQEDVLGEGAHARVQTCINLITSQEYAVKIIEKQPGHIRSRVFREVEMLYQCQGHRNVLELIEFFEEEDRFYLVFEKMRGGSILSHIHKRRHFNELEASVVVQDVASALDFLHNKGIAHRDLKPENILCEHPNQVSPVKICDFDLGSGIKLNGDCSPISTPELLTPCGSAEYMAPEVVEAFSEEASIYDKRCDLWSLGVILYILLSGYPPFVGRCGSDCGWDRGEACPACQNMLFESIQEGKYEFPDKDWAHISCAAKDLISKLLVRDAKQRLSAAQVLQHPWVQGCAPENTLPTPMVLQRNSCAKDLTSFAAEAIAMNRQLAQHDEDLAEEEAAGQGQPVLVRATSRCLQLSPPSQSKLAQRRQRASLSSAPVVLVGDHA
ASSAY METRIC: IC50 (nM)
Answers are plain numbers, in nM.

Ask: Lookup: IC50 / MAP kinase-interacting serine/threonine-protein kinase 2 (Homo sapiens, UniProt Q9HBH9) / c1cc(-c2cc(C3CCNCC3)[nH]n2)ccn1
Result: 575

* * *

target: MAP kinase-interacting serine/threonine-protein kinase 1 (Homo sapiens); assay: Inhibition of MNK1
Sequence (Q9BUB5 whole entry): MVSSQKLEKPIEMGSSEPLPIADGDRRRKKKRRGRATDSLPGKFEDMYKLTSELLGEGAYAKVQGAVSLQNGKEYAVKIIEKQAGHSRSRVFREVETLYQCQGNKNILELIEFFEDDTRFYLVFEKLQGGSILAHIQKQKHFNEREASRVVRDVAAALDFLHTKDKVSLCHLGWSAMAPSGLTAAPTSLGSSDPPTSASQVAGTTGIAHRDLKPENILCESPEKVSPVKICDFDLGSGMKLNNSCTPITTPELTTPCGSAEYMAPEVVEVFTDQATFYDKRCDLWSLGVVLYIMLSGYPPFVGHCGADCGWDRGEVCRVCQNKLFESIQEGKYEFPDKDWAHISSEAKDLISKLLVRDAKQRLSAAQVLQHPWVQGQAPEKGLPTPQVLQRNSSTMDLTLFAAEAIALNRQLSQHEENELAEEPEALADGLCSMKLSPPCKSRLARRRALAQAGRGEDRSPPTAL
ASSAY METRIC: IC50 (nM)
Answers are plain numbers, in nM.

Illustrative cases are given below, each with its answer.
* c1cc(-c2cc(C3CCNCC3)[nH]n2)ccn1 | 646
* COc1cc2ncnc(Nc3cccc(Br)c3)c2cc1OC | 630
* Clc1ccc(Nc2ncnc3[nH]ncc23)cc1 | 580
* COc1cc2ncnc(Nc3cc(Br)c(O)c(Br)c3)c2cc1OC | 120
* NC(=O)c1ccc(Nc2ncnc3[nH]cnc23)cc1 | 160

Hi team, please reply with IC50 for each item in this list.
1. Brc1ccc(Nc2ncnc3[nH]ncc23)cc1
2. c1cc(-c2cnc3sc(NCC4CC4)nn23)ccn1
3. c1ccc2cc(Nc3ncnc4[nH]ncc34)ccc2c1
4. CNc1ccc2ncc(-c3ccc(F)cc3)n2n1
5. NC(=O)c1ccc(-c2cc(-c3ccccc3)cnc2N)cc1
6. Fc1cccc(Nc2ncnc3n[nH]cc23)c1
7. CNc1ccc2ncc(-c3cccc(O)c3)n2n1
8. CNc1cc2c(Nc3cccc(Br)c3)ncnc2cn1

Result:
1560
1710
1350
4050
5150
1090
1530
1700

Ask: For the compound COC(=O)c1ccc(Nc2[nH]cnc3ncnc2-3)cc1 , what IC50 is on record?
Result: 850
